Known IC50 of a selection of compounds
- measured-on: HIV integrase (Human immunodeficiency virus type 1 group M subtype B, UniProt P12497, F1332H)
- Construct: HIV integrase full length gene
- assay-comment: Determination of enzyme (HIV integrase) inhibitory activity
- experimental-parameters: recombinant integrase protein (F185H), strand transfer plate assay, absorbance at 450 nm
- Protocol: The following explains evaluation methods of the HIV integrase inhibitory activity of the compound of the present invention. (i) Construction of Recombinant Integrase Gene Expression System […] A peroxidase color solution (Bio Rad, 100 μl) was added and allowed to react at room temperature for 4 min (or 3 min). […] The absorbance at 450 nm was measured. […]

Reference set, count: 5
>  <compound>
CCc1cc2c(cc1Cc1cc(N3CCCC3=O)cc(Cl)c1F)c(=O)c(C(=O)O)cn2[C@H](CO)C(C)(C)C [Example 52]

>  <readout-label>
IC50

>  <recorded-result>
10 to 100 nM

$$$$
>  <compound>
COc1cc2c(cc1Cc1cc(-c3ccccn3)cc(Cl)c1F)c(=O)c(C(=O)O)cn2[C@H](CO)C(C)C [Example 36]

>  <readout-label>
IC50

>  <recorded-result>
< 10 nM

$$$$
>  <compound>
COc1cc2c(cc1Cc1cc(N3CCOCC3)cc(Cl)c1F)c(=O)c(C(=O)O)cn2[C@H](CO)[C@H](C)OC [Example 28]

>  <readout-label>
IC50

>  <recorded-result>
< 10 nM

$$$$
>  <compound>
COc1cc2c(cc1Cc1cc(N3CCCC3=O)cc(Cl)c1F)c(=O)c(C(=O)O)cn2[C@H](CO)[C@@H](C)OC [Example 48]

>  <readout-label>
IC50

>  <recorded-result>
< 10 nM

$$$$
>  <compound>
CCO[C@H](C)[C@@H](CO)n1cc(C(=O)O)c(=O)c2cc(Cc3cc(N4CCOCC4)cc(Cl)c3F)c(OC)cc21 [Example 50]

>  <readout-label>
IC50

>  <recorded-result>
10 to 100 nM

$$$$

Req: Please give the measured IC50 for this compound: CCc1cc2c(cc1Cc1cc(N3CCCC3=O)c(F)c(Cl)c1F)c(=O)c(C(=O)O)cn2[C@H](CO)C(C)C [Example 26]
Resp: < 10 nM

* * *

- measured-on: HIV integrase (Human immunodeficiency virus type 1 group M subtype B, UniProt P12497, F1332H)
- Construct: HIV integrase full length gene
- assay-comment: Determination of enzyme (HIV integrase) inhibitory activity
- experimental-parameters: recombinant integrase protein (F185H), strand transfer plate assay, absorbance at 450 nm
readout-label: IC50

>  <test-smiles>
CCc1cc2c(cc1Cc1cc(N3CCCC3=O)cc(Cl)c1F)c(=O)c(C(=O)O)cn2[C@H](CO)[C@@H](C)OC

>  <IC50>
10 to 100 nM

$$$$
>  <test-smiles>
COc1cc2c(cc1Cc1cc(N3CCCC3=O)c(F)c(Cl)c1F)c(=O)c(C(=O)O)cn2[C@H](CO)C(C)(C)C

>  <IC50>
< 10 nM

$$$$
>  <test-smiles>
CCc1cc2c(cc1Cc1cc(N3CCOCC3)cc(Cl)c1F)c(=O)c(C(=O)O)cn2[C@H](CO)[C@@H](C)OC

>  <IC50>
< 10 nM

$$$$
>  <test-smiles>
COc1cc2c(cc1Cc1cc(N3CC[C@@H](F)C3)cc(Cl)c1F)c(=O)c(C(=O)O)cn2[C@H](CO)C(C)C

>  <IC50>
< 10 nM

$$$$
>  <test-smiles>
COc1cc2c(cc1Cc1cc(N3CCN(C(C)=O)CC3)cc(Cl)c1F)c(=O)c(C(=O)O)cn2[C@H](CO)C(C)C

>  <IC50>
< 10 nM

$$$$

Consider the additional compound presented here.
Req: Quick check: IC50 of COc1cc2c(cc1Cc1cc(N3CC[C@H](F)C3)cc(Cl)c1F)c(=O)c(C(=O)O)cn2[C@H](CO)C(C)C ?
Resp: < 10 nM

* * *

Below: a set of entries, each annotated with reported pIC50.
- measured-on: HIV integrase (Human immunodeficiency virus type 1 group M subtype B, UniProt P12497, F1332H)
- Construct: HIV integrase full length gene
- assay-comment: Determination of enzyme (HIV integrase) inhibitory activity
- experimental-parameters: recombinant integrase protein (F185H), strand transfer plate assay, absorbance at 450 nm
pIC50: −log10 of the molar value.

Some entries whose results are on file:
>  <test-smiles>
CC(C)(C)[C@H](CO)n1cc(C(=O)O)c(=O)c2cc(Cc3cc(N4CCOCC4)c(F)c(Cl)c3F)ccc21

>  <recorded-result>
7.00 to 8.00

$$$$
>  <test-smiles>
COc1cc2c(cc1Cc1cc(N3CCOCC3)cc(Cl)c1F)c(=O)c(C(=O)O)cn2[C@H](CO)C(C)(C)C

>  <recorded-result>
> 8.00

$$$$
>  <test-smiles>
COc1cc2c(cc1Cc1cc(N3CCC(O)CC3)cc(Cl)c1F)c(=O)c(C(=O)O)cn2[C@H](CO)C(C)C

>  <recorded-result>
> 8.00

$$$$

Below: the item to evaluate.
Req: What does the record list as pIC50 for COc1cc2c(cc1Cc1cc(N3CCCC3)cc(Cl)c1F)c(=O)c(C(=O)O)cn2[C@H](CO)C(C)C ?
Resp: > 8.00

* * *

- measured-on: HIV integrase (Human immunodeficiency virus type 1 group M subtype B, UniProt P12497, F1332H)
- Construct: HIV integrase full length gene
- assay-comment: Determination of enzyme (HIV integrase) inhibitory activity
- experimental-parameters: recombinant integrase protein (F185H), strand transfer plate assay, absorbance at 450 nm
readout-label: IC50

// below: answered compounds
>  <compound>
CCc1cc2c(cc1Cc1cc(N3CCOCC3)cc(Cl)c1F)c(=O)c(C(=O)O)cn2[C@H](CO)C(C)(C)OC [Example 43]

>  <IC50>
< 10 nM

$$$$
>  <compound>
COc1cc2c(cc1Cc1cc(N3CCOCC3)cc(Cl)c1F)c(=O)c(C(=O)O)cn2[C@H](CO)C(C)(C)OC [Example 42]

>  <IC50>
< 10 nM

$$$$
>  <compound>
COc1cc2c(cc1Cc1cc(N3CCCCC3)cc(Cl)c1F)c(=O)c(C(=O)O)cn2[C@H](CO)C(C)C [Example 6]

>  <IC50>
< 10 nM

$$$$
>  <compound>
COc1cc2c(cc1Cc1cc(N3CCOCC3)cc(Cl)c1F)c(=O)c(C(=O)O)cn2[C@H](CO)C(C)C [Example 5]

>  <IC50>
< 10 nM

$$$$
>  <compound>
CCc1cc2c(cc1Cc1cc(N3CCCC3=O)c(F)c(Cl)c1F)c(=O)c(C(=O)O)cn2[C@H](CO)C(C)(C)C [Example 55]

>  <IC50>
10 to 100 nM

$$$$
>  <compound>
COCC[C@@H](CO)n1cc(C(=O)O)c(=O)c2cc(Cc3cc(N4CCCC4=O)cc(Cl)c3F)c(OC)cc21 [Example 47]

>  <IC50>
10 to 100 nM

$$$$
>  <compound>
COc1cc2c(cc1Cc1cc(N3CCCCC3=O)cc(Cl)c1F)c(=O)c(C(=O)O)cn2[C@H](CO)C(C)C [Example 7]

>  <IC50>
< 10 nM

$$$$
>  <compound>
COc1cc2c(cc1Cc1cc(N3CCOCC3)c(F)c(Cl)c1F)c(=O)c(C(=O)O)cn2[C@H](CO)C(C)(C)C [Example 49]

>  <IC50>
< 10 nM

$$$$

Req: Bench note: what IC50 did CCc1cc2c(cc1Cc1cc(N3CCOCC3)cc(Cl)c1F)c(=O)c(C(=O)O)cn2[C@H](CO)[C@H](C)OC [Example 35] show?
Resp: 10 to 100 nM

Req: Field entry: CCc1cc2c(cc1Cc1cc(N3CCOCC3)cc(Cl)c1F)c(=O)c(C(=O)O)cn2[C@H](CO)CCOC [Example 44]
Resp: 10 to 100 nM

Req: Similarly, COc1cc2c(cc1Cc1cc(N3CCOCC3)c(F)c(Cl)c1F)c(=O)c(C(=O)O)cn2[C@H](CO)C(C)C [Example 16] ?
Resp: < 10 nM

Req: What do you get for COc1cc2c(cc1Cc1cc(-c3noc(C)n3)cc(Cl)c1F)c(=O)c(C(=O)O)cn2[C@H](CO)C(C)C [Example 57] ?
Resp: < 10 nM

Req: Repeat with COc1cc2c(cc1Cc1cc(N3CCC(F)(F)C3)cc(Cl)c1F)c(=O)c(C(=O)O)cn2[C@H](CO)C(C)C [Example 12]
Resp: < 10 nM

Req: Same for CC(C)(C)[C@@H](CO)n1cc(C(=O)O)c(=O)c2cc(Cc3cc(N4CCOCC4)cc(Cl)c3F)ccc21 [Example 53]
Resp: < 10 nM
